Molecular target: hGYS1 enzyme (recombinant hGYS1/GN1 protein) (Homo sapiens (Human), UniProt P13807)
Sequence (P13807 whole entry): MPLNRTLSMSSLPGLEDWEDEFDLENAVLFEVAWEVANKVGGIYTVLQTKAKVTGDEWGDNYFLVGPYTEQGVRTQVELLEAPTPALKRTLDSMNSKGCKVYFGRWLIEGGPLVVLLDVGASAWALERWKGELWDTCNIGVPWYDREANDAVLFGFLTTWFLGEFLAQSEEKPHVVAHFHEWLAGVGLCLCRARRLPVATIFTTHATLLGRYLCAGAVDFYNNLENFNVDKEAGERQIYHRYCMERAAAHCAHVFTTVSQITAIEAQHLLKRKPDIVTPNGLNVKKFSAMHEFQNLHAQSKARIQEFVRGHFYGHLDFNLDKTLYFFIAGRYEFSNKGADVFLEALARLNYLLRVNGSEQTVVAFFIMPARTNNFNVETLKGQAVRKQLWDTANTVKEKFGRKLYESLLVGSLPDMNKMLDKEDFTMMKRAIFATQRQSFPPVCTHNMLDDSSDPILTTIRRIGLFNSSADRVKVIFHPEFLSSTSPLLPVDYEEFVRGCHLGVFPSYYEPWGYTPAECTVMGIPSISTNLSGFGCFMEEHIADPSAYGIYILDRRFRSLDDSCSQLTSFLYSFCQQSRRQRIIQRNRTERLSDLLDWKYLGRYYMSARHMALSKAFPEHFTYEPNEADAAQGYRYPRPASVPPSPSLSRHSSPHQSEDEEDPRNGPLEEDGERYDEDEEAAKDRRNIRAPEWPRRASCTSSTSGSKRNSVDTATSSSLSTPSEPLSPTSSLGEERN
Sequence (P46976 whole entry partner): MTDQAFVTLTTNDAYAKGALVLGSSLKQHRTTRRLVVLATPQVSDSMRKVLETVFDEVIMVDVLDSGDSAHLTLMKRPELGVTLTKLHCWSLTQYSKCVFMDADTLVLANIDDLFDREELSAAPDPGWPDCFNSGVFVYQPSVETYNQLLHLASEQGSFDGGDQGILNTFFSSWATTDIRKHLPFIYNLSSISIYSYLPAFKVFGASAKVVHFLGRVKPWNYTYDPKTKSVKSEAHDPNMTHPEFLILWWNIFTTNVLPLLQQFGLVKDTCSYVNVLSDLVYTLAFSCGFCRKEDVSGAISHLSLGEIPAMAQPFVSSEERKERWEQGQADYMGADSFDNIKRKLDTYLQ
Assay: GYS1 coupled enzyme assay (PK/LDH)
Conditions: hGYS1/GN1 50 nM, UDP-Glucose 0.8 mM, G6P 1 mM; geometric mean of at least 2 runs
pIC50: −log10 of the molar value.
endpoint: pIC50

Would you please look over these solved cases?
O=C(N[C@@H](c1ccccc1)c1ccc(C2CC(F)(F)C2)cn1)[C@@H]1C[C@@H](F)CN1C(=O)Cn1cnc2ccccc21 = 7.96
CC(C)c1cnc(C(NC(=O)[C@@H]2C[C@@H](F)CN2C(=O)Cc2cnn[nH]2)c2ccccc2)cc1C(F)(F)F (single isomer, unassigned) = 5.54
O=C(N[C@@H](c1ccccc1)c1ccc(C2CC2)c(F)n1)[C@@H]1C[C@@H](F)CN1C(=O)Cc1ncco1 = 7.01
C[C@@H](NC(=O)N(C)C)C(=O)N1C[C@H](F)C[C@H]1C(=O)N[C@@H](c1ccccc1)c1ccc(C2CC2)c(F)n1 = 6.90
CC1(c2ccc([C@@H](NC(=O)[C@@H]3C[C@@H](F)CN3C(=O)Cn3c(=O)[nH]c4ccccc43)c3ccccc3)nc2F)CC1 = 7.40
CC(C)c1ccc([C@@H](NC(=O)[C@@H]2C[C@@H](F)CN2C(=O)Cn2cnc3ccccc32)c2ccccc2)cc1 = 8.10

a = CC(C)c1ccc([C@@H](NC(=O)[C@@H]2C[C@@H](F)CN2C(=O)C2CCC3CCC(=O)N3C2)c2ccccc2)cc1 (stereo partly shown)
b = Cn1cc(CC(=O)N2C[C@H](F)C[C@H]2C(=O)N[C@@H](c2ccccc2)c2ccc(C3(C)CC3)c(F)c2)c2ccccc21
Could you kindly indicate whether a or b has the higher pIC50 value? Refer to your chosen item by its label in the answer. b
(b: 7.20, a: 6.45)

P = CC(C)c1ccc([C@@H](NC(=O)[C@@H]2C[C@@H](F)CN2C(=O)CS(C)(=O)=O)c2ccccc2)cc1
Q = CCn1c(=O)ccn(CC(=O)N2C[C@H](F)C[C@H]2C(=O)N[C@@H](c2ccccc2)c2ccc(C(C)C)c(F)n2)c1=O
R = CC(=O)N1CCC[C@H]1C(=O)NC(c1ccc(C(C)C)cn1)c1ccccc1C (single isomer, unassigned)
S = CNC(=O)NCC(=O)N1C[C@H](F)C[C@H]1C(=O)N[C@@H](c1ccccc1)c1ccc(C(C)C)c(F)n1
Sort entries by pIC50 from minimum to maximum value. Would you mind listing the labels in the order asked for? R, P, S, Q
(R: 5.53, P: 6.89, S: 8.10, Q: 8.52)

This collection of values is drawn from patent US11814367B2.
